System: CDK5
Conditions: concentration: 1 μM, replicates: in singlicate; n = 1;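 also: KINOMEscan kinase panel screen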
readout: %Inh (%)
I only need the number, in %, no unit after it.

**Query** Returns the measured %Inh for the input molecule. Input: CCn1c(-c2c(N)noc2C)nc2cnccc21
**Result** 8

**Query** Also Nc1cccc(-c2ccc3c(N)n[nH]c3c2)n1 ?
**Result** 0

**Query** Also Cc1c(Cn2c3ccccc3n3c(=O)cc(N4CCOCC4)nc23)cccc1C(F)(F)F ?
**Result** 0

====

Tested on: ACVR2A
Conditions: concentration: 1 μM, replicates: in singlicate; n = 1
readout: %Inh (%)
I only need the number, in %, no unit after it.

Cc1nccc(-c2c(-c3ccc(F)cc3)ncn2CCCN2CCOCC2)n1.Cl : 53

**Query** Returns the measured %Inh for the input compound. Input: Cn1cnc2c(N)ncnc21
**Result** 0

**Query** Also Nc1nccc(-c2c(-c3ccc(F)cc3)ncn2C2CCN(Cc3ccccc3)CC2)n1 ?
**Result** 0

**Query** Also Cc1ccccc1-c1cc(-c2c[nH]nc2-c2ccccn2)ccn1 ?
**Result** 0

**Query** Also COC(=O)C(Cc1ccccc1)NC(=O)NC1CCN(c2ccnc(Nc3ccc(F)cc3)n2)C1 (stereo not drawn) ?
**Result** 0

**Query** Also CC(C)c1cc(-c2ccc3c(N)n[nH]c3c2)nc(N)n1 ?
**Result** 0

**Query** Also O=c1cc(N2CCOCC2)nc2n(Cc3cccc(Cl)c3Cl)c3ccccc3n12 ?
**Result** 0

**Query** Also COc1ccc(-c2coc3ccc(-c4nnc(C)o4)cc23)cc1 ?
**Result** 5

**Query** Also Cn1cncc1C(=O)NC1CCN(c2ccnc(Nc3ccc(F)cc3)n2)C1 (stereo not drawn) ?
**Result** 24

**Query** Also O=c1cc(N2CCOCC2)nc2n(Cc3ccccc3F)ccn12 ?
**Result** 0

**Query** Also CNc1nc(-c2ccc3c(N)n[nH]c3c2)cc(N2C[C@@H](C(=O)Nc3ccccc3)CC[C@H]2C)n1 ?
**Result** 0

**Query** Also CCn1c(-c2ccccc2)nc2cnccc21 ?
**Result** 20

**Query** Also NS(=O)(=O)c1cccc(N/C=C2\C(=O)Nc3ccc(S(=O)(=O)Cc4c(Cl)cccc4Cl)cc32)c1 ?
**Result** 0

**Query** Also Cc1ccc(NC(=O)Nc2ccc(Cl)c(C(F)(F)F)c2)cc1-c1ccc(C(=O)Nc2ccncc2)cc1 ?
**Result** 0

**Query** Also COc1ccc(Nc2nccc(-c3ccc(NC(=O)c4cc5cc(F)ccc5[nH]4)cc3)n2)cc1 ?
**Result** 0

**Query** Also COC(=O)C(NC(=O)NC1CCN(c2ccnc(Nc3ccc(F)cc3)n2)C1)c1ccccc1 (stereo not drawn) ?
**Result** 0

**Query** Also COc1ccc(Nc2nccc(N3CCC(NC(=O)C(C)c4ccc(Cl)cc4)C3)n2)cc1 (stereo not drawn) ?
**Result** 0

**Query** Also COc1cc2ncnc(Nc3cccc(Br)c3)c2cc1OC.Cl ?
**Result** 0

====

// %Inh lookup, one value per entry
Tested on: EPHB1
Details: concentration: 1 μM, replicates: in singlicate; n = 1
I only need the number, in %, no unit after it.

Cn1cnc2c(N)ncnc21 : 0
COc1cc2ncnc(Nc3cccc(Br)c3)c2cc1OC.Cl : 20
Nc1ncnc2occ(-c3ccc4c(c3)CCN4C(=O)Cc3cc(F)ccc3F)c12 : 0
COc1nccc(-c2c(-c3ccc(F)cc3)ncn2CCCN2CCOCC2)n1 : 0
COc1cccc(C2=C(Nc3cc(Cl)c(O)c(Cl)c3)C(=O)NC2=O)c1 : 11

**Query** What measured %Inh is associated with Cc1ccc(-c2nc(Nc3ccncc3)c3ccccc3n2)s1 on EPHB1?
**Result** 24

**Query** Also Nc1nccc(-c2c(-c3ccc(F)cc3)ncn2C2CCN(Cc3ccccc3)CC2)n1 ?
**Result** 9

**Query** Also O=c1cc(N2CCOCC2)nc2n(Cc3ccccc3F)ccn12 ?
**Result** 5

**Query** Also COC(=O)C(NC(=O)NC1CCN(c2ccnc(Nc3ccc(F)cc3)n2)C1)c1ccccc1 (stereo not shown) ?
**Result** 10

**Query** Also Cc1cccc2c(-c3ccncn3)c(-c3ccc(F)cc3)nn12 ?
**Result** 1

**Query** Also O=C(Nc1n[nH]c2nc(-c3cccs3)c(Br)cc12)C1CC1 ?
**Result** 0
